Source listed as patent US6803380B1.

Please provide measured melting point for the entries that follow.
Dear colleague, please return just the value in °C, with no unit written.

Quick note, melting point for `CS(=O)(=O)c1ccc(-c2nc(C(F)(F)F)nn2-c2cccnc2)cc1.Cl` landed at 180

Quick note, melting point for Cc1nc(-c2ccc(S(C)(=O)=O)cc2)n(-c2ccc(Cl)cc2)n1 [Example 3] landed at 186

Quick note, melting point for CS(=O)(=O)c1ccc(-c2nc(C(F)(F)F)nn2-c2ccc(S(C)(=O)=O)cc2)cc1 [Example 26] landed at 214

Quick note, melting point for Cc1nc(-c2ccc(S(C)(=O)=O)cc2)n(-c2ccc(N(C)C)cc2)n1 [Example 15] landed at 200

Quick note, melting point for CS(=O)(=O)c1ccc(-c2nc(C(F)(F)F)nn2-c2ccc3c(c2)OCO3)cc1 [Example 28] landed at 185

Quick note, melting point for Cc1nc(-c2ccc(S(C)(=O)=O)cc2)n(-c2ccccc2)n1 [Example 5] landed at 146
